experimentalTarget: human IGF1R (hIGF1R) (Homo sapiens, UniProt P08069)
Construct: containing amino acid residues 957-1367 of human IGF1R; made in house; host or cells: Sf9 cells (baculovirus)
Sequence (P08069 957-1367): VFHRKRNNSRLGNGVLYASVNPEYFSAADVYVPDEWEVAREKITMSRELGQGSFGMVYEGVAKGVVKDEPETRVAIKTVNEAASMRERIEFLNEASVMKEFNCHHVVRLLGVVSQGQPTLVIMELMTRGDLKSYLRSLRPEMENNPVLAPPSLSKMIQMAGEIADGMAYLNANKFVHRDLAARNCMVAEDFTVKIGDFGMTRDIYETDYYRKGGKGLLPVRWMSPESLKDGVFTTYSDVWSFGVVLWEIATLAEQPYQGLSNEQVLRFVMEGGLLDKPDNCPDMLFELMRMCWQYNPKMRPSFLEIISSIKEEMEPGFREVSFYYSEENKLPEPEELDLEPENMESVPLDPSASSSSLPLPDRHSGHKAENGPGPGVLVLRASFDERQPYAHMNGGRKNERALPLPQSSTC
assayComment: TR-FRET kinase assay of purified hIGF1R
Type: biochemical
conditionLabel: activated hIGF1R 0.5 nM, 10 μM ATP, values given as pIC50 category, read-out: IGF-1R pIC50 (converted)
Parameter: IC50. Scope: all listed entries.

Cc1ccc(NC(=O)CN(C)C)cc1Nc1nc(Nc2ccccc2C(=O)NCCO)c2cc[nH]c2n1 : 5.01 to 200 nM
COc1cc2c(cc1Nc1nc(Nc3cccc(F)c3C(N)=O)c3cc[nH]c3n1)CN(C(=O)CN(C)C)CC2 : 1.26 to 3.98 nM

Using the record for Cc1ccc(NC(=O)CN(C)C)cc1Nc1nc(Nc2ccccc2C(N)=O)c2cc[nH]c2n1 , report its IC50.
1.26 to 3.98 nM
